Values were extracted from PubChem BioAssay AID485317.

Molecular target: FAD-linked sulfhydryl oxidase ALR (Homo sapiens) (UniProt P55789)
Sequence (P55789 whole entry, looked up): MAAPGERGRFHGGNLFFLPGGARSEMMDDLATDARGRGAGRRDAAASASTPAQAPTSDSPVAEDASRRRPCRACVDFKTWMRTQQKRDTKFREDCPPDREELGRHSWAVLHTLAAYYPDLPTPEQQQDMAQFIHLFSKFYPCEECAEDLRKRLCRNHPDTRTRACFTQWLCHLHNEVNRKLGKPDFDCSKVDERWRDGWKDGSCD
Assay: ALR-catalysed DTT oxidation blockers – biochemical, H2O2 detection, HRP-luminol luminescence, single point, primary screen (AID 485317)
Settings: purified ALR, active compounds read high, concentration not given here
In all, about 290,000 compounds went through this assay and about 11,000 (3.8%) were called active. For the sample, actives were picked, then their nearest neighbours and some compounds at random.
A collection of compounds and their measured inhibition

Some solved cases for reference:
compound	metric_name	result_value
CC1CCCCC12NC(=O)N(CC(=O)OCc1c(F)cccc1Cl)C2=O (stereo unspecified)	inhibition	25.1% (inactive)
Clc1ccc(CN2CCN(/N=C/c3cccnc3)CC2)cc1	inhibition	14.2% (inactive)
Cc1ccc(S(=O)(=O)N2CCCCC2)cc1C(=O)N(C)CC(=O)Nc1cccc(F)c1	inhibition	-10.8% (inactive)
COc1cc(/C=C(\C#N)c2nc3c(s2)CC(C)CC3)ccc1O (stereo unspecified)	inhibition	70% (inactive)
COc1ccccc1CSc1ncc(-c2ccc([N+](=O)[O-])cc2)[nH]1	inhibition	-12.3% (inactive)
O=C1N[C@H](Cc2c[nH]c3ccccc23)COC(=O)[C@H](Cc2ccc(F)cc2)C/C=C\C[C@H]1CC(=O)N(CCO)Cc1ccccc1	inhibition	-0.125% (inactive)
COC(=O)c1c(NC(=O)c2ccccc2F)sc2c1C(C(=O)OC)CC2 (stereo unspecified)	inhibition	1.9% (inactive)
CCC1S/C(=N/N=C/c2ccco2)NC1=O (stereo unspecified)	inhibition	-6.96% (inactive)

Form field: reported inhibition of CCCS(=O)(=O)Nc1ccc(-c2cn3c(n2)SCC3)cc1
4.68% (inactive)

Repeat with CCOc1ccc(CC(=O)NCCS(=O)(=O)N2CCN(c3ccccc3)CC2)cc1
-1.48% (inactive)
